The origin of these recorded values is the NTF2 design screens of Basanta et al. (2020).

assay name: protease stability score; higher = more stable; yeast display proteolysis, trypsin and chymotrypsin;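 further: log10 excess protease needed over predicted unfolded state with 0 meaning unfolded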
Reported protease stability score is given for each of the following sequences.
Kindly provide the number alone.

{"biopolymer sequence": "DERKRATEIAEQIQTILRTGNPKDMRRMADEDVKVDVGDQRIHGRDQLATTLHKLRKRADHIDIKIVSVNAQGDKFVVRQRVRETVNGRVRTFEFVMVLRVHNGREVVKSRHQS", "protease stability score": 0.225}
{"biopolymer sequence": "DEEREVKKRIKHIIRVLENGDEDRAEELADPNTTARVGDKRVHGMNNYMRELARKARRADHVEVTIKHMDLNGEKFDIRLHIVIHVDGRREKFDLRFVITRQGDKHVAVDVQVS", "protease stability score": 1.47}
{"biopolymer sequence": "DEQELAEELFRDLTEAMKKGDPEQRKDLADEDVHQQVGDKTYHGREDNMKAMEELKRNYDSISIKLTSLSVHNGKVRIVFKVDFEHNGKTSTRRVVAHAYLQGDKVKIKKISEQ", "protease stability score": 0.749}
{"biopolymer sequence": "DEEVLDTVLKALSTNNEEQFHRMADPNDRVSYGDKSIHGMVKAADVQREFRKRVDHIHIQRYDSEGDKAKVTYVAHVDGRNINITITFDVRNGTIRSINIRARNEKNQKRFEEVVG", "protease stability score": 0.245}
{"biopolymer sequence": "DEEKHKQKLRKFAKDFVEGDPEEISKNVDEDVKVHIGDQDVSGREEAMKVIEEIKKRADHIQITSVEASNGRLRINVVIQVNGRNVTAHVTVDADNGRVKKVTMDPDQVRKLKS", "protease stability score": 0.827}

# ---- query sequence ----
protease stability score recorded for this sequence, EEERQKKAEQWVHAYRHNNEDEIRQLADPNVRFNVGDTRITGRENVMKTLDDQMRHQRVRFHDIQIRVKGDKINITIDAEYESNGRPSRRTLSLEMHLHNGKISHARIDIQG , is -0.128

====

assay name: protease stability score; higher = more stable; yeast display proteolysis, trypsin and chymotrypsin;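 further: log10 excess protease needed over predicted unfolded state with 0 meaning unfolded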
Mark 0 (no) for protease stability score values under 1, and 1 (yes) for everything at or above.

These solved cases illustrate the format of a correct answer.
{"biopolymer sequence": "DEEDNTRLVNLFEHNDWDTIADQADPEAQLVIGDKTYTGREEVKKALSTLVERVDRIEFKRFDVHGNKIHVKMELRFDGRNIELVMRITIKNGRIKSIKIRARDKEVEKILKEMHS", "classification": "1 (yes)"}
{"biopolymer sequence": "DEELVEQLKKMYENEKNGDPDKVHEQFDKDARIDIGEKQVRGRDQASREAERERKQINVEIKHVDIKAHNGRATIDMVIVFNINGQPHRRRVTVYAVLHNGKIKSMSRHMDPSEQDQLTQ", "classification": "0 (no)"}
{"biopolymer sequence": "DERQENNARKFFTAYLKGDEHKLTELMRDDVRLKIGDKEIHGRETALKTIHTLRRRQRIHIQVDNIEVDENHVEVHAKIEWEHNGQPDSQKVRIDIKFHNGRINYLQMDLRG", "classification": "1 (yes)"}
{"biopolymer sequence": "DDRQMDHFAHQFERNNPDEYRKMLDPNARAEYGDKDYSGREQVQTLADTLHKQFDHLEVKDYRFNNGRAEFRYEAKFNGKTLTMKMVAEVKNGHIKHVVFRVTDPRQRKDLQREFG", "classification": "0 (no)"}

Attention now turns to another entry.
Request: Quick check, protease stability score >= 1? EEEVQHKIKQLLKNNDWTTLADQVDPNARMVVGDKTVTGREQIQTIARRIQERVDHVEFKQLTVQGDHIDVVMVVNINGEHIKMHFIFRVHNGHIKHVEMQATDPRDQKKLKDLLE
Result: 1 (yes)

====

assay name: protease stability score; higher = more stable; yeast display proteolysis, trypsin and chymotrypsin;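 further: log10 excess protease needed over predicted unfolded state with 0 meaning unfolded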
Here, each record is paired with measured protease stability score data.
Reply with just the number.

# annotated cases, reported protease stability score shown
{"biopolymer sequence": "DREERHRAEQWLNAIKTNNPDDVVEQADKDVRLEVGEERVSGRSELRKEVDKDRKRWDFEIDHVDIKVHNGRIHMTVDVVVRHNGKPDKQEQEYTIEFSNGRARTIVARQNK", "reported value": -0.229}
{"biopolymer sequence": "DHEAEKRWTKLQEAIKYNNPQEAKHQMDPNARVRVGDKEFHGMDDFAKYQLDHQRKIEVDRKVKKVDVKNGSVKVVQDVENNNNGTPSRHVMDLRVEVHNGHIRNVRAETDK", "reported value": -0.295}
{"biopolymer sequence": "DEEDEEVVRQWLEAYKTGDPDQLKRNADPNARIQVGDKVLHGMEDAKTELKEQRDHQRFRFHMDSVSVHGNRVEITMKADVDVNGRPIHFTNSFVFTLHNGKIRHIDLQVPEELKHQMTK", "reported value": -0.125}

Given item ERDSLKHVAREMEKNNFDEMLHNADKDVEIHYGNRSVHGHKRAQSFWERLKSRVDHISFKSYSINNGRIVMSFKVVIDGQDIEVHISIEVENGTIKHVQFQATSEEIEKLLEKLMD , the value recorded as its protease stability score is 1.36

protease stability score reading for DDELEEQVKKWLENLKNNNEEELQKQMDPNAKMQYGDKEYHGMHDALKTLAQEDRELRYNVRIISINVQGDRVHITRRINRDHDGRPSQKKYKLNLRLHNGRNQHFREQEDG : -0.102

Entry under test: DEEKAKHRVEEFTQLLQENDWDHLANMADENARVQVGDQVYDGRKDIERWAKQVKERVDNVTVKEMSVSGNKMNANVEFQINGVTVRATIEIDFHNGKAKHMRVDPDVVRKQSR . Its protease stability score was 0.727

Noted for DEHNMKLASRLVRAVQTNDPDQWVRNVDKNVRVQVGDKTVHGREEFHRQMEKKAREMRYEVQMDQVTVHGDKVRIDITERSNVNGRPHHKRAEMIVHVSNGKVQRVEVQDRK : its protease stability score reads -0.162

====

assay name: protease stability score; higher = more stable; yeast display proteolysis, trypsin and chymotrypsin;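 further: log10 excess protease needed over predicted unfolded state with 0 meaning unfolded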
The reader will find reported protease stability score values listed item by item below.
Simply state the number, no unit and no words.

{"biopolymer sequence": "DEEAVKRANEMVEAWEHGDESRFMKLVDPNAQVRVGDKEVHGKEDMNRSIQEESRQLRVHRRVESVESQGNEVKIDLVFTQNVNGQPIQQRVDVVITFRNGKAVDIQLDIPEDQQQQHRR", "reported value": -0.131}
{"biopolymer sequence": "DQRDLEHVNHVLQTGDPDQFRDLVDPNARIRVGDKTIHGRENVLTKYRRLMEQADHLQIDSIRNHGEFVVFDFRMTVNGRQVDAEVNIHVKDGQIKEIEIRFRSEEQEDRWRKQAD", "reported value": 1.42}
{"biopolymer sequence": "DEEDLHNALNAWKAFNTGDPDRAVQLADPNVNVVIGDKHVHGREQLSHEIKRVRHESNVQVRHVNNDNQGEKAKVQAEMVDTQNGQPRTFTVDIDVRAHNGKLKEVKVQEQD", "reported value": -0.322}
{"biopolymer sequence": "DHQESAHRLHNTLKTIWSENDPDKYSELIDENVHVDVGDKKFRGRDEAKKLAEHIMRRADHIEIRLTSIDVHGNTIRIVVELNFNHDGTSSSVTVVVVLENHNGNFRVKKIRES", "reported value": 0.017}
{"biopolymer sequence": "DEEKLKKVIDTLQKALQNGNPDEIVKVIDKTVKFKLGDETFEGQEDARKVIKRLRDQGMEFHVERQEVTGDQAKVQTVWHAGDVEMHMHVTYDVDGDKVKRVEVRWDEEAKKAVKKG", "reported value": 0.562}
{"biopolymer sequence": "DEKQALDVAHEAARAVAEGDDQKLREHMDPNATMEYGDKQVHGRENIMRVAKEFRDRADNVEIKSVHLTGNKVNVHVLLTHNGHTQRVRIDAKAHNGRVKSIRLDDK", "reported value": 1.06}
{"biopolymer sequence": "DERQNSQLHRQIEQAKQGDEEKVRQQMDENARARYGDKEVHGRTELARQQVRQWNEAKIDIEFKRVSAHENEIRVNVVMQFDVDGRPNRSTWTFKVRFHNGTIKQINAEIDPDEWDTLLK", "reported value": 0.506}
{"biopolymer sequence": "DQEEVRRVVEKVAKAVQNGDATRLRDMGKDGVKYRRVEEETHGPEAVEKVLKYLRKQGVKLQVKHVEVEGNTAQTEVDYRRGDETLTVHAKAKVQGGRIDEVQVDLDEKAKKYVDHG", "reported value": 0.138}
{"biopolymer sequence": "DEELHEVVERLLQALRNGDPDQFKKNVDPNVKIVVGETQYHGREEAAHQLHQEHNNSSFQYVSVDVQVHGNKVVIDQRRRETQNGQPDSENFSEEAEAHNGKFKHIRQRSTK", "reported value": -0.235}
{"biopolymer sequence": "DEKETHKVLEKIEKVLHNFNIDEAKKVLKDDVRVQYLDEEYHGPDAAEKRLTKVKKLGAQVEYKEAHVEGNRVKAKVQVNVGGRTLEFTVEYTAKGHKVDEFRVQYDEDAQKTIKHG", "reported value": 0.76}

Okay, next one:
Query DQEENQKIAERIVKIIQTGDNEKAMKQVDKNVRIRVGEKEYHGRESAREHIREQKEQFDHATVDDMKVQGNKIVLKMRLDVNGVDMDVVIKVTVKNGTIKELHVEYRDREDQQKIES yields protease stability score of 1.09
